Test system: MDA-MB-231 (breast)
Assay: In vitro cytotoxic activity (MTT) assay, MDA-MB-231
Assay type: cell-based
Conditions: Homo sapiens; MDA-MB-231 (breast) cells, exposed for 96 hours; read-out: IC50, concentration of compound eliciting a 50% inhibition of cell proliferation
endpoint_label: pIC50
# pIC50: negative log10 of molar concentration; output just the value

Q: Answer with reported pIC50 of Clc1cccc(Nc2c3cnccc3nc3c2nc2ccncn23)c1
Result: 5.33

====

Molecular target: recombinant human CK2 (RRββ-holoenzyme) (Homo sapiens, UniProt P68400)
Sequence (P68400 whole entry): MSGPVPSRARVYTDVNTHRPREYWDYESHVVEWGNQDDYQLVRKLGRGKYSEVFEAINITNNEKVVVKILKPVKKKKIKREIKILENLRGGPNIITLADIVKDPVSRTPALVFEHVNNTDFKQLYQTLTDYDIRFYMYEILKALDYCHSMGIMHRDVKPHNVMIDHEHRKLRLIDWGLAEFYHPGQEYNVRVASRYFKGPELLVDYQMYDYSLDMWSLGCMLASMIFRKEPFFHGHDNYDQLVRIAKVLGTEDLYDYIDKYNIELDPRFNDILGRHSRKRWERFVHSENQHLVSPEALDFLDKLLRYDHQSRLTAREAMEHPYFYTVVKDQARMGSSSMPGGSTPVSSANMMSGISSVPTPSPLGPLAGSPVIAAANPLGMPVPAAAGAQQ
Sequence (P67870 whole entry partner): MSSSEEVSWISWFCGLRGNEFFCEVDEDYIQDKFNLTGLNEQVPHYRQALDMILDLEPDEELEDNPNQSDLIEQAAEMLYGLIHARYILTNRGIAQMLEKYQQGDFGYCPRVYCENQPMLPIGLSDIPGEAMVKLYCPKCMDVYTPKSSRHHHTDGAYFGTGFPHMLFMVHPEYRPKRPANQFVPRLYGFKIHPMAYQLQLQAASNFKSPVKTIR
Test: CK2 Kinase Assay (radiometric, [γ-33P] ATP)
Conditions: final ATP concentration 15 μM, 10 min at 30° C., eight concentrations; read-out: protein kinase CK2 IC50
endpoint_label: pIC50
# pIC50: negative log10 of molar concentration; output just the value

Q: Answer with reported pIC50 of Clc1cccc(Nc2c3cnccc3nc3c2nc2ccncn23)c1 [Compound 1]
Result: 6.86

====

System: H1299 (lung)
Test: In vitro cytotoxic activity (MTT) assay, H1299
Format: cell-based
Conditions: Homo sapiens, NCI-H1299; H1299 (lung) cells, exposed for 96 hours; read-out: IC50, concentration of compound eliciting a 50% inhibition of cell proliferation
endpoint_label: IC50 (nM)
Report only the number, with the unit nM understood.

Q: Write down measured IC50 (H1299 (lung)) for this molecule. Clc1cccc(Nc2c3cnccc3nc3c2nc2ccncn23)c1
Result: 2500

====

Test system: HL60 (leukemia)
Test: In vitro cytotoxic activity (MTT) assay, HL60
Format: cell-based
Details: Homo sapiens, HL-60; HL60 (leukemia) cells, exposed for 96 hours; read-out: IC50, concentration of compound eliciting a 50% inhibition of cell proliferation
endpoint_label: pIC50
# pIC50: negative log10 of molar concentration; output just the value

Q: Write down measured pIC50 (HL60 (leukemia)) for this compound. Clc1cccc(Nc2c3cnccc3nc3c2nc2ccncn23)c1
Result: 5.51
